src = ChEMBL document CHEMBL3352079

test: Plasma concentration in human NCI-H1299 cells xenografted in mouse at 100 mg/kg, po qd after 10 hrs; type: ADME, organism-based; design: dose 100 mg/kg, route oral
Result type: concentration at 10 h

# Molecule smiles, Result type, Endpoint result
rows = [
    ("CN1Cc2cc(Nc3ncc4c(=O)n(-c5c(F)cccc5Cl)c5nccn5c4n3)ccc2C(C)(C)C1", "concentration at 10 h", "13.7 µM"),
]

====

For Wee1-like protein kinase (Homo sapiens), measured Ki is reported for the entries below.
Result type: Ki (nM)

# Molecule smiles, Result type, Sign, Endpoint result
records = [
    ("CN1Cc2cc(Nc3ncc4c(=O)n(-c5c(F)cccc5Cl)c5nccn5c4n3)ccc2C(C)(C)C1", "Ki", "<", 1),
    ("CN1CCCc2cc(Nc3ncc4c(=O)n(-c5ccccc5Cl)c5nccn5c4n3)ccc21", "Ki", "=", 7.4),
    ("CN1Cc2cc(Nc3ncc4c(=O)n(-c5c(F)cccc5Cl)c5nccn5c4n3)ccc2C2(CC2)C1", "Ki", "<", 1),
    ("O=c1c2cnc(Nc3ccc(C4CCCCC4)cc3)nc2n2ccnc2n1-c1ccccc1Cl", "Ki", "=", 87),
    ("CN1CCc2ccc(Nc3ncc4c(=O)n(-c5ccccc5Cl)c5nccn5c4n3)cc2C1", "Ki", "=", 1.6),
]
